Below: a set of entries, each annotated with reported binding response of second antibody (nm).
molecular target: T1, human GFRα3 expressed with a C-terminal myc-myc-hexahistidine tag (human, UniProt O60609 32-374, biotinylated (sites not given) in ELISA format 2 and in the Octet cross-competition; not in SPR); assay: Octet cross-competition; biotin-hGFRα3-mmH pre-saturated with first antibody H4H2292S
T1 construct: also called hGFRα3-mmh; hGFRα3-mmH
T1 sequence (O60609 other isoform, or with tags, fused parts or gaps limits assumed): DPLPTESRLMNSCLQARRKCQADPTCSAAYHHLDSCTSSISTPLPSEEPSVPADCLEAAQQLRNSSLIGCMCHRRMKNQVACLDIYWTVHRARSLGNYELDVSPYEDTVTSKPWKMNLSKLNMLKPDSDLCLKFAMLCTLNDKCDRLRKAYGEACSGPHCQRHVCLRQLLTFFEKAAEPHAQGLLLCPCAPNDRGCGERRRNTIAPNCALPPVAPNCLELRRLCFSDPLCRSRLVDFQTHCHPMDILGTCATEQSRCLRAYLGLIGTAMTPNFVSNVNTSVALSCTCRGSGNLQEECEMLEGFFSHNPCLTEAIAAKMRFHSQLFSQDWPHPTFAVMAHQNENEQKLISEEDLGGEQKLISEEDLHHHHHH
Respond with the bare value in nm.

Illustrative cases are given below, each with its answer.
[[record]]
binder = "H4H2350P (antibody, human IgG4, V domains shown, human IgG4 Fc (H4H)) VH: QVQLQESGPGLVKPSETLSLTCTVSGGSISTYYWSWFRQPPGKGLEWIGYIYYSGSTNHNPSLKSRVTISVDTSKNQFSLKLRSVTAADTAVYYCARVGPVGWGSWGNFDYWGQGTLVTVSS VL: DIQLTQSPSFLSASVGDRVTITCWASQGISSYLAWSQQKPGKAPKLLIYAASTLQSGVPSRFSGSGSGTEFTLTISSLQPEDFATYYCQQLNSYPWTFGQGTKVEIK"
observed_property = "binding response of second antibody (nm)"
endpoint_result = 1.53

[[record]]
binder = "H4H2295S (antibody, human IgG4, V domains shown, human IgG4 Fc (H4H)) VH: EVQLVESGGGLVQAGGSLRLSCVASGFTFSSYAMSWVRQAPGKGLEWVSAISGSGGSTYSADSVKGRFTISRDNSKNTLYLQMNSLRAEDTAVYYCTKPSSYSSSNFYYGMDVWGQGTTVTVSS VL: DIQMTQSPSSVSASVGDRVTITCRASQGISSWLAWYQQKPGKAPKLLIYTASSLQSGVPSRFSGSGSRTDFTLTISSLQPEDFATYYCQQTNSLPLTFGPGTKVEIK"
observed_property = "binding response of second antibody (nm)"
endpoint_result = 2.31


Now consider a different binder.
Req: Which binding response of second antibody (nm) value belongs to H4H2294S (antibody, human IgG4, V domains shown, human IgG4 Fc (H4H)) VH: EVQLVESGGGLVQPGGSLRLSCAASGFTFSSYAMSWVRQAPGKGLEWVSVISGSGGSTYYADAVKGRFTISRDNSKHTLYLQMNSLRAEDTAVYYCTKPSSYSSSNFYYGMDVWGQGSTVTVSS VL: DIQLTQSPSSVSASVGDRVTITCRASQGISSWLAWYQQKPGKAPKLLIYAASSLQSGVPSRFSGSGSGTDFTLTISSLQPEDFATYYCQQTNSFPFPFGPGTKVDIK ?
Resp: 2.31

All values here come from patent US20140056903A1.
